tested.target: Atrial natriuretic peptide receptor 1 (Homo sapiens)
protocol: Natriuretic polypeptide receptor (hNpr1) antagonism - Primary qHTS; further: nearly all actives have a fitted effect of over 60% in size
conditions: HEK293 hNpr1 GloSensor cGMP, ANP-stimulated luminescence; series mostly up to 46.3 µM
Hit rate of the full screen: of about 76,000 compounds, about 1,200 (1.6%) were called active. Inconclusive results (about 4%) are left out. The call rests on the fitted dose curve. This is one part of a sample in which actives are shown more often than they occur.
Possible outcomes: active, inactive

{"compound": "O=C(c1ccoc1)N1CCN(c2cc(-c3ccc(Cl)cc3)[nH]n2)CC1", "class.assignment": "inactive"}
{"compound": "O=C(c1cccc(F)c1)N1CCOC[C@H](Oc2ccc(C(F)(F)F)cc2)C1", "class.assignment": "active"}
{"compound": "COc1ccccc1CNC(=O)CN1CCCC(CO)(CC2CC2)C1 (stereo not given)", "class.assignment": "inactive"}
{"compound": "O=C(C[C@@H]1CCNC[C@@H]1Cc1cc(CC2CCCCC2)on1)N1CCOCC1", "class.assignment": "inactive"}
{"compound": "Cc1c(Cl)c(C(=O)N2C[C@@H](CN3CCCN(C)CC3)[C@@H](CO)C2)nn1C", "class.assignment": "inactive"}
{"compound": "CCCCSc1nc(N)cc(N2CCCC(OCc3cccnc3)C2)n1 (stereo not given)", "class.assignment": "inactive"}
{"compound": "CC(C)(C)c1csc(NC(=O)c2ccc3c(c2)OCCN(C2CCC2)C3)n1", "class.assignment": "active"}
{"compound": "Cc1cccc(CN2CCc3nc(C(=O)Nc4ccc(Cl)cc4)oc3CC2)c1", "class.assignment": "active"}
{"compound": "COc1ccc(C2Cn3nnc(C(=O)N4CCN(C(=O)c5cccc(Cl)c5)CC4)c3CO2)cc1 (stereo not given)", "class.assignment": "active"}
{"compound": "O=C(C1CC1)N1CCC2(CC1)C(=O)NCN2Cc1ccc(Cl)cc1", "class.assignment": "inactive"}

The reported numbers originate from PubChem BioAssay AID1347048.
